Biological target: purified soluble αvβ5 integrin (Millipore) (UniProt P06756 31-992; P18084 24-719)
Sequence (P06756 31-992, chain 1 of 2): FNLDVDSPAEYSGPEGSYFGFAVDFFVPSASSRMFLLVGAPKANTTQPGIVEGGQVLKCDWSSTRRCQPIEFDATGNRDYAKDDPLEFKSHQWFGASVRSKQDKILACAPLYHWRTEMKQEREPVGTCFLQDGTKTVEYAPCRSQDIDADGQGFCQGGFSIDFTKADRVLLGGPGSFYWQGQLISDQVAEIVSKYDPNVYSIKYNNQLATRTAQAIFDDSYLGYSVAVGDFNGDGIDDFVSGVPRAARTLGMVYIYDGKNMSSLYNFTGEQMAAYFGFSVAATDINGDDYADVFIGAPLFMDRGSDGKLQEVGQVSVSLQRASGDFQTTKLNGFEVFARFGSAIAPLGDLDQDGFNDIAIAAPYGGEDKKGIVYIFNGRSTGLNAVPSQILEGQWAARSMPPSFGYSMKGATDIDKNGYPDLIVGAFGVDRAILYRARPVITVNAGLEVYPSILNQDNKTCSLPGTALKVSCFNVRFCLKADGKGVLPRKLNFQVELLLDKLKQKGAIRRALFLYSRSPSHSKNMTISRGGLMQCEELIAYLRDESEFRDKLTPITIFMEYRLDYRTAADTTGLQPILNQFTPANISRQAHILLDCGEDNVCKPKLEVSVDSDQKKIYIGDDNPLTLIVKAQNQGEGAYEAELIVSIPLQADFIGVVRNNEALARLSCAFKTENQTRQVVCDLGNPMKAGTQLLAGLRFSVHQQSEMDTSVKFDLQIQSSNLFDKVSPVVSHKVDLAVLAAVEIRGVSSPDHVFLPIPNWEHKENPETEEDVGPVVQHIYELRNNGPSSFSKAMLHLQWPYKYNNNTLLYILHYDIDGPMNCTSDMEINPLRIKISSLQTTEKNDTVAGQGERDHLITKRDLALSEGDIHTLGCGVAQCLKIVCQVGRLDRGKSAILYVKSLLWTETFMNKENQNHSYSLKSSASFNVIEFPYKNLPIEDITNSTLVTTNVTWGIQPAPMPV
Sequence (P18084 24-719, chain 2 of 2): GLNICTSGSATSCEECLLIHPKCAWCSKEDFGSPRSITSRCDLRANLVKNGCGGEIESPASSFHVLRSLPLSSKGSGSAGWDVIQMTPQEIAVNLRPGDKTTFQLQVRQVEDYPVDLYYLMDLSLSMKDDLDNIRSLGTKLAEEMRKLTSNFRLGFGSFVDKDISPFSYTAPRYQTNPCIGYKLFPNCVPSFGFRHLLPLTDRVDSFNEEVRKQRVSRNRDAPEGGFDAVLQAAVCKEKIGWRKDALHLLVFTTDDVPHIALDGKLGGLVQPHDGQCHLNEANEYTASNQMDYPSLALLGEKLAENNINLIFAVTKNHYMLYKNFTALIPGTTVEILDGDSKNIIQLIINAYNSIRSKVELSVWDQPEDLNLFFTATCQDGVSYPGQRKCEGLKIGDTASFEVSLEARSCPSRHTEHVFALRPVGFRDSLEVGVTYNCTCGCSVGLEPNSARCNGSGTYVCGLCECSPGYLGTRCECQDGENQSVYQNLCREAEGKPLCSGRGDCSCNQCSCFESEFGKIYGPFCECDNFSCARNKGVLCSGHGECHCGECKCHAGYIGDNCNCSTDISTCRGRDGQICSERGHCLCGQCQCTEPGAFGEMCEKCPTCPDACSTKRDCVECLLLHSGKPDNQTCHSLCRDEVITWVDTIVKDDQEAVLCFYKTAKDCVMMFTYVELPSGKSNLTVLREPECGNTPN
OBSERVATION_TYPE: pKd
Field pKd (float): negative decimal logarithm of the concentration in molar.

Given item Contortrostatin (CN), native, purified from Agkistrodon contortrix contortrix venom (ligand) DAPANPCCDAATCKLTTGSQCADGLCCDQCKFMKEGTVCRRARGDDLDDYCNGISAGCPRNPFH , the value recorded as its pKd is 7.71
